# System: MEKK2 (MAP3K2) mutant PB1 domain binding MEK5, human
# ASSAY SUMMARY: mutant MEKK2 PB1-MEK5 binding signal retest – biochemical, single concentration, multiplex bead flow cytometry, confirmation (AID 1893);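 also: higher means compound restores mutant binding toward wildtype level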
# CONDITION NOTES: Alexa488-MEK5 binding to MEKK2 mutant, at 10 µM, stronger effect = higher value
Out of some 5,900 compounds screened, about 120 (2%) were called active. Only a sample is shown.
RECORDED METRIC: percent response (%)
Numbers only, in %.

For orientation, consider the following solved cases.
# COMPOUND, UNITS, percent response
records = [
    ("O=C1NCC(=O)N(Cc2ccccc2)/C1=C/c1ccccc1", "%", -16),
    ("CNC(=O)/C(=C\\C=C\\c1ccccc1)NC(=O)c1ccc([N+](=O)[O-])cc1", "%", 7),
]

I have 7 compounds here; please give me percent response for each one.
1. Cc1c(C#N)c2ncn(CC#N)c(=O)c2n1-c1ccccc1
2. c1ccc2c(c1)C(=NC1CCCCC1)NC2=NC1CCCCC1
3. C=CCN1C=C2C(=O)C(C)(OC(=O)CCc3ccccc3)C(=O)C=C2C=C1c1ccc(C#N)cc1 (stereo not given)
4. O=c1[nH]c(=S)[nH]c2[nH]c(=S)[nH]c12
5. N=C1/C(=C/c2cccn2-c2cccc([N+](=O)[O-])c2)C(=O)N=C2SC=CN12
6. Cc1ccc2c(c1)C1CN(C)CCC1N2S(=O)(=O)c1ccc(Oc2ccc([N+](=O)[O-])cc2)cc1 (stereo not given)
7. Cc1ccc(CNC(=O)Cn2c(=O)c3sccc3n(Cc3cccc([N+](=O)[O-])c3)c2=O)cc1

-7
18
-1
-2
-6
61
2

Can you share its percent response? I mean this compound: "Cc1ccc(C(=O)N/C(=C/c2ccco2)C(=O)NCCc2c[nH]c3ccccc23)cc1C"
-4

---

# Tested on: MEKK2 (MAP3K2) mutant PB1 domain binding MEK5, human
# ASSAY SUMMARY: mutant MEKK2 PB1-MEK5 binding signal retest – biochemical, single concentration, multiplex bead flow cytometry, confirmation (AID 1893);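 also: higher means compound restores mutant binding toward wildtype level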
# CONDITION NOTES: Alexa488-MEK5 binding to MEKK2 mutant, at 10 µM, stronger effect = higher value
Screen size: about 5,900 compounds; about 120 (2%) were called active. Only a sample is shown.
Can you tell me percent response for the items I'm about to list?
Numbers only, in %.

# MOLECULE, RECORDED METRIC, REPORTED
measured = [
    ("CCC(C)OC(=O)C(C)Oc1ccc(-c2ccccc2)cc1 (stereo not drawn)", "percent response", 10),
    ("Cc1nc2cc(S(=O)(=O)C(F)(F)F)ccc2s1", "percent response", -1),
]

I have 5 molecules here; please give me percent response for each one.
1. O=C(NCC1CCCCC1)c1cc(S(=O)(=O)N2CCCCC2)ccc1N1CCOCC1
2. Cn1c2ccccc2c(=O)c2c(=O)n(Cc3ccco3)c(COc3ccccc3)nc21
3. O=C(/C=C/Nc1ccccc1)c1cnc(-c2ccccc2)s1
4. C#CCOCCOCCOCCNc1nc(N2CCN(C(=O)C([C@@H](C)CC)n3cc(C(N)COC(=O)C(F)(F)F)nn3)CC2)nc(N2CCN(C(=O)[C@H](CCCCN)n3cc(C(N)CC(C)C)nn3)CC2)n1 (stereo partly drawn)
5. COc1cccc(CNCCc2c[nH]c3ccccc23)c1OCc1ccccc1F

[-16, -6, 7, 52, 9]

I have 4 molecules here; please give me percent response for each one.
1. COc1cc(CC(=O)N/N=C/c2ccccc2)c([N+](=O)[O-])cc1OC
2. CCOc1cc(C(=O)OCC(=O)Nc2cccc(C)c2)ccc1OCC(=O)N1CCOCC1
3. COc1cc(-c2nnc(Cn3cc(C(F)(F)F)ccc3=O)o2)cc(OC)c1OC
4. Clc1ccc(-c2nnc(SCc3nc4ccccc4s3)o2)cc1

[4, 0, 1, -4]

I have 6 molecules here; please give me percent response for each one.
1. Cc1ccc(C)c(CN2CCC(CNC(=O)Nc3ccc(C)c(F)c3)CC2)c1
2. COc1ccc(SC[C@H](Cc2ccccc2)N2CCN(CCc3ccccc3)CCC2=O)cc1
3. CCN(CC)C(=O)CC(c1ccc2c(c1)OCO2)c1c(OC)cc(OC)c2c(-c3ccccc3)cc(=O)oc12 (stereo not drawn)
4. O=C(CC1SCCNC1=O)Nc1ccc(Cl)c(Cl)c1 (stereo not drawn)
5. COc1cccc(Nc2ncccc2C(=O)O)c1
6. Cn1c(=NC(=O)CSCC(=O)N2CCOCC2)sc2ccccc21

[20, 16, -4, 4, -5, -15]

I have 5 molecules here; please give me percent response for each one.
1. N#C/C(=C\C1=C(N2CCOCC2)C(=C\c2ccccc2)/CC1)C(=O)Nc1ccccc1F
2. CCOC(=O)c1c(-c2ccccc2)csc1NC(=S)NC(=O)c1ccccc1
3. COc1ccc(C(=O)NCC(=O)N/N=C/c2ccc([N+](=O)[O-])o2)cc1OC
4. O=C(CN1C(=O)c2cccnc2Oc2ccc(Cl)cc21)Nc1ccc(F)cc1
5. O=C(OCc1cc(Cl)ccc1OC(F)F)c1cccnc1

[-38, 0, -10, 1, -8]

Can you share its percent response? I mean this molecule: "CCOc1nnc(C)c2c(C)n(-c3cccc(Cl)c3)nc12"
-10

---

# System: MEKK2 (MAP3K2) mutant PB1 domain binding MEK5, human
# ASSAY SUMMARY: mutant MEKK2 PB1-MEK5 binding signal retest – biochemical, single concentration, multiplex bead flow cytometry, confirmation (AID 1893);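 also: higher means compound restores mutant binding toward wildtype level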
# CONDITION NOTES: Alexa488-MEK5 binding to MEKK2 mutant, at 10 µM
Among all 5,900 compounds or so, about 120 (2%) were called active. Rule as the data show it: active = percent response mostly above about 71% (no sharp cut-off); inactive = mostly below about 38%. Only a sample is shown.
Hi! Could you answer with just one of these? 1 (yes) = active, 0 (no) = inactive

# COMPOUND, CLASS ASSIGNMENT
records = [
    ("CCN(CC)CCOCCOc1ccc(Cl)c2ccccc12", "0 (no)"),
    ("CC(=O)Nc1ccc(-c2nc3ccccc3o2)cc1", "0 (no)"),
    ("COc1cccc(NC(=S)NCCCN2CCOCC2)c1", "0 (no)"),
    ("Cc1noc(C)c1S(=O)(=O)N(C)Cc1ccccc1", "0 (no)"),
    ("Cc1ccccc1CCN(CC(=O)NC1CCCCC1)C(=O)c1csnn1", "0 (no)"),
    ("COC(=O)c1nc2n(n1)C(c1ccc([N+](=O)[O-])cc1)C(C(=O)Nc1ccc(Cl)cc1)=C(C)N2 (configuration not stated)", "0 (no)"),
]

Call for entry "Cc1ccc(Nc2nc(CSc3nnc(-c4ccncc4)n3-c3ccccc3C)cs2)cc1" :
0 (no)

Call for entry "CN(C)c1ccc(/C=C2\NC(=S)N(Cc3ccccc3)C2=O)cc1" :
0 (no)

Call for entry "COC(=O)c1c(NC(=O)COc2ccc(Cl)cc2Cl)sc2c1CC(C)(C)NC2(C)C" :
0 (no)

Call for entry "CCN(CC)CCOc1ccc2c(c1)C(=NNC(=O)c1ccccn1)c1cc(OCCN(CC)CC)ccc1-2" :
1 (yes)

Call for entry "Cc1ccc(NC(=S)N(CCCN2CCCC2)Cc2cccn2Cc2ccc(Cl)cc2)cc1" :
0 (no)

Call for entry "CCOC(=O)/C(C#N)=C/c1ccc(OCC(=O)Nc2ccccc2)c(OC)c1" :
0 (no)

---

# Tested on: MEKK2 (MAP3K2) mutant PB1 domain binding MEK5, human
# ASSAY SUMMARY: mutant MEKK2 PB1-MEK5 binding signal retest – biochemical, single concentration, multiplex bead flow cytometry, confirmation (AID 1893);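 also: higher means compound restores mutant binding toward wildtype level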
# CONDITION NOTES: Alexa488-MEK5 binding to MEKK2 mutant, at 10 µM, stronger effect = higher value
Screen size: about 5,900 compounds; about 120 (2%) were called active. Only a sample is shown.
RECORDED METRIC: percent response (%)
Numbers only, in %.

# SMILES ENTRY, percent response, %
rows = [
    ("Cc1cccc(-c2ncc(CN3CCC(CO)(CCCc4ccccc4)CC3)cn2)c1", 9),
    ("COc1ccccc1N1CCN(CCCCOc2ccc(F)cc2)CC1", 0),
    ("COC(=O)CCc1sc(Nc2ccc(Br)cc2)nc1-c1ccc(OC)cc1", 9),
    ("CCCCn1c(SCC(=O)NCCc2ccc(OC)c(OC)c2)nc2c1c(=O)n(C)c(=O)n2C", 0),
    ("Cc1c(S(=O)(=O)NCc2ccccc2)c(=O)n(C)c(=O)n1C", 2),
]

I have 2 molecules here; please give me percent response for each one.
1. O=C(O)/C=C\C(=O)Nc1ccc(OCc2ccccc2)cc1
2. Cc1cccc(CN2CCC(CNC(=O)Nc3ccc(F)c(Cl)c3)CC2)c1

[-4, 8]

Recorded values, source PubChem BioAssay AID1893.
